Tested on: Vero E6 infected with SARS-CoV-2
ASSAY: inhibition of SARS-CoV-2 cytopathic effect; higher = more antiviral protection, active = above 15
CONDITION INFO: 1 nM; 48 h
inhibition of SARS-CoV-2 cytopathic effect for assorted compounds
Numbers only; they are read as %.

In the examples that follow, each entry is paired with its recorded inhibition of SARS-CoV-2 cytopathic effect.
Q) Test system Vero E6 infected with SARS-CoV-2; read-out inhibition of SARS-CoV-2 cytopathic effect; what value for O=C(/C=C/C=C/c1ccc2c(c1)OCO2)N1CCCCC1 [piperine] ?
A) -1.58

Q) Test system Vero E6 infected with SARS-CoV-2; read-out inhibition of SARS-CoV-2 cytopathic effect; what value for CC(=O)Oc1cccc(C(=O)O)c1OC(C)=O [dipyrocetyl] ?
A) -0.44

Q) Test system Vero E6 infected with SARS-CoV-2; read-out inhibition of SARS-CoV-2 cytopathic effect; what value for Cc1cn(C[C@H](N)C(=O)O)c(=O)n(Cc2ccsc2C(=O)O)c1=O ?
A) 1.18

Q) Test system Vero E6 infected with SARS-CoV-2; read-out inhibition of SARS-CoV-2 cytopathic effect; what value for CN(C)CCNc1nc2cc(O)ccc2c2c1C(=O)c1ccccc1-2 ?
A) 0.16

Further cases:
Q) Test system Vero E6 infected with SARS-CoV-2; read-out inhibition of SARS-CoV-2 cytopathic effect; what value for CCNC(=O)Nc1ccc(-c2nc3c(c(N4CCOC[C@@H]4C)n2)CCN(C2COC2)C3)cc1 ?
A) 0.65

###

inhibition of SARS-CoV-2 cytopathic effect for assorted molecules
Test system: Vero E6 infected with SARS-CoV-2
ASSAY: inhibition of SARS-CoV-2 cytopathic effect; higher = more antiviral protection, active = above 15
CONDITION INFO: 1 nM; 48 h
Numbers only; they are read as %.

Q) Request the reported inhibition of SARS-CoV-2 cytopathic effect associated with O=C1C=Cc2cc(Br)ccc2C1=O
A) -0.83

Further cases:
Q) Request the reported inhibition of SARS-CoV-2 cytopathic effect associated with CNC(=O)c1ccccc1Nc1cc(Nc2ccc(N3CCOCC3)cc2OC)ncc1C(F)(F)F
A) 0.1

Q) Request the reported inhibition of SARS-CoV-2 cytopathic effect associated with C[C@H]1[C@H](C)CC[C@]2(C(=O)O)CC[C@]3(C)C(=CC[C@@H]4[C@@]5(C)C[C@@H](O)[C@H](O)C(C)(C)[C@@H]5CC[C@]43C)[C@H]12
A) -3.62

Q) Request the reported inhibition of SARS-CoV-2 cytopathic effect associated with O=C(c1ccc(C(=O)N2CCC(N3CCCC3)CC2)c(Nc2ccccc2)c1)N1CCC(N2CCCC2)CC1
A) 0.43

Q) Request the reported inhibition of SARS-CoV-2 cytopathic effect associated with Cc1cc([N+](=O)[O-])ccc1NS(=O)(=O)c1cc(Cl)ccc1Cl
A) -3.81

###

System: Vero E6 infected with SARS-CoV-2
ASSAY: inhibition of SARS-CoV-2 cytopathic effect; higher = more antiviral protection, active = above 15
CONDITION INFO: 833.33 nM; 48 h
MEASURE: inhibition of SARS-CoV-2 cytopathic effect (%)
Numbers only; they are read as %.

In the examples that follow, each entry is paired with its recorded inhibition of SARS-CoV-2 cytopathic effect.
Q) Test system Vero E6 infected with SARS-CoV-2; read-out inhibition of SARS-CoV-2 cytopathic effect; what value for CC(C)(C)C#Cc1cc(N(C(=O)[C@H]2CC[C@H](C)CC2)[C@H]2CC[C@@H](O)CC2)c(C(=O)O)s1 ?
A) 1.33

Q) Test system Vero E6 infected with SARS-CoV-2; read-out inhibition of SARS-CoV-2 cytopathic effect; what value for C=C[C@@H]1C[C@]1(NC(=O)[C@@H]1C[C@@H](Oc2ncc(OC)c3ccc(Cl)cc23)CN1C(=O)[C@@H](NC(=O)OC(C)(C)C)C(C)(C)C)C(=O)NS(=O)(=O)C1CC1 [asunaprevir] ?
A) 2.81

Further cases:
Q) Test system Vero E6 infected with SARS-CoV-2; read-out inhibition of SARS-CoV-2 cytopathic effect; what value for COc1ccc([C@@H]2CC(=O)c3c(O)cc(O[C@@H]4O[C@H](CO[C@@H]5O[C@@H](C)[C@H](O)[C@@H](O)[C@H]5O)[C@@H](O)[C@H](O)[C@H]4O)cc3O2)cc1O [hesperidin] ?
A) 0.15

Q) Test system Vero E6 infected with SARS-CoV-2; read-out inhibition of SARS-CoV-2 cytopathic effect; what value for C/C(O)=C(\C#N)C(=O)Nc1cc(Br)ccc1Br ?
A) 2.02

Q) Test system Vero E6 infected with SARS-CoV-2; read-out inhibition of SARS-CoV-2 cytopathic effect; what value for O=S(=O)(O)c1ccc2[nH]c(-c3ccccc3)nc2c1 [phenylbenzimidazole-sulfonic-acid] ?
A) 4.9

Q) Test system Vero E6 infected with SARS-CoV-2; read-out inhibition of SARS-CoV-2 cytopathic effect; what value for COC(=O)c1c(C)[nH]c(C)c1C(=O)c1ccccc1Cc1ccccc1 ?
A) -3.62

Q) Test system Vero E6 infected with SARS-CoV-2; read-out inhibition of SARS-CoV-2 cytopathic effect; what value for C=CCc1cc(OC)c(O)c(C(=O)NCCO)c1 [alibendol] ?
A) 1.71
